Biological target: 1-deoxy-D-xylulose 5-phosphate reductoisomerase (Escherichia coli K-12)
Sequence (P45568 whole entry): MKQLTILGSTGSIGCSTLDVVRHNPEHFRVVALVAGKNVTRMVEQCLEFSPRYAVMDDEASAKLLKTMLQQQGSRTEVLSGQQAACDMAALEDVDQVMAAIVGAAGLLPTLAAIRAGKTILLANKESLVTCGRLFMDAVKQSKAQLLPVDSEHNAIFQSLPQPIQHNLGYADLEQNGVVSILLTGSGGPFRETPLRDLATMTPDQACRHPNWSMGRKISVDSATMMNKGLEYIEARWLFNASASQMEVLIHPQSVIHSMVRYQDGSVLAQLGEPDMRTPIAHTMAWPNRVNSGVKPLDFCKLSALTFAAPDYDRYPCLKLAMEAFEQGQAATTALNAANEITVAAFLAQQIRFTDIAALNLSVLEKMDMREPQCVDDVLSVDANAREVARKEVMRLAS
Assay: Inhibition of recombinant Escherichia coli DXR
Provide the reported IC50 of each item.
State the answer as a number, implicitly in nM.

# IC50 of O=CN(O)C[C@@H]1C[C@H]1P(=O)(O)O = 313

# IC50 of CC(=O)N(O)C[C@@H]1C[C@H]1P(=O)(O)O = 50

# IC50 of CC(=O)N(O)CCCP(=O)(O)O [FR-900098] = 58

# IC50 of CC(=O)N(O)CC1CC1P(=O)(O)O (stereo unspecified) = 160

###

Provide the reported IC50 of each item.
System: Plasmodium falciparum
Assay: Inhibition of Plasmodium falciparum 3D7
Assay type: functional, organism-based

# IC50 of CC(=O)N(O)C[C@@H]1C[C@H]1P(=O)(O)O = 320 nM

# IC50 of CC(=O)N(O)CCCP(=O)(O)O [FR-900098] = 240 nM

# IC50 of O=CN(O)C[C@@H]1C[C@H]1P(=O)(O)O = 2100 nM

# IC50 of O=CN(O)CCCP(=O)(O)O [FOSMIDOMYCIN] = 400 nM

###

Test system: Plasmodium falciparum
Assay: Inhibition of Plasmodium falciparum Dd2
Type: functional, organism-based
MEASURED_ATTRIBUTE: pIC50
Notebook: values listed as pIC50 are -log10 of the concentration (mol/L).

# pIC50 of O=CN(O)C[C@@H]1C[C@H]1P(=O)(O)O = 5.70

# pIC50 of CC(=O)N(O)C[C@@H]1C[C@H]1P(=O)(O)O = 6.32

# pIC50 of O=CN(O)CCCP(=O)(O)O = 6.32

# pIC50 of CC(=O)N(O)CCCP(=O)(O)O = 6.55
